- method notes: in vitro
- test context: human, microsomes
observable: remaining at 1 µM (%)

* CN(c1ccc(Cl)cc1)S(=O)(=O)c1cccc(C(=O)Nc2ccc(S(C)(=O)=O)cc2)c1 | 112
* COc1ccc(N(C)S(=O)(=O)c2cccc(C(=O)Nc3ccc(C#N)cc3)c2)cc1 | 106
* CC(=O)c1ccc(N(C)S(=O)(=O)c2cccc(C(=O)Nc3ccc(Cl)cn3)c2)cc1 | 82
* CN(c1ccc(Cl)cc1)S(=O)(=O)c1cccc(C(=O)Nc2ccc(C#N)cn2)c1 | 91

====

- method notes: in vitro
- test context: mouse, microsomes
observable: microsomal CLint at 1 µM (µL/min/mg)
Answer format: numeric, µL/min/mg implied, no suffix.

Report microsomal CLint at 1 µM for CN(c1ccc(S(C)(=O)=O)cc1)S(=O)(=O)c1cccc(NC(=O)c2ccc(Br)cc2)c1 please.
945

====

- method notes: in vitro
- test context: human, microsomes
observable: half-life at 1 µM (min)
Answer format: numeric, min implied, no suffix.

Report half-life at 1 µM for CN(c1ccc(S(C)(=O)=O)cc1)S(=O)(=O)c1cccc(NC(=O)c2ccc(Br)cc2)c1 please.
4.5

====

- method notes: in vitro
- test context: mouse, microsomes
observable: remaining at 1 h, 1 µM (%)
Answer format: numeric, % implied, no suffix.

Report remaining at 1 h, 1 µM for CN(c1ccc(S(C)(=O)=O)cc1)S(=O)(=O)c1cccc(NC(=O)c2ccc(Br)cc2)c1 please.
1.5

====

- method notes: in vitro
- test context: mouse, microsomes
observable: remaining at 1 µM (%)

• CC(=O)c1ccc(N(C)S(=O)(=O)c2cccc(C(=O)Nc3ccc(Cl)cc3)c2)cc1 = 108
• CN(c1ccc(Cl)cc1)S(=O)(=O)c1cccc(C(=O)Nc2ccc(C#N)cn2)c1 = 96
• COc1ccc(N(C)S(=O)(=O)c2cccc(C(=O)Nc3ccc(C#N)cc3)c2)cc1 = 90
• CC(=O)c1ccc(N(C)S(=O)(=O)c2cccc(C(=O)Nc3ccc(Cl)cn3)c2)cc1 = 91
• CN(c1ccc(Cl)cc1)S(=O)(=O)c1cccc(C(=O)Nc2ccc(S(C)(=O)=O)cc2)c1 = 100

====

- method notes: in vitro
- test context: mouse, microsomes
observable: remaining at 1 µM (%)

- CC(=O)c1ccc(N(C)S(=O)(=O)c2cccc(C(=O)Nc3ccc(Cl)cc3)c2)cc1: 0

(A) CC(=O)c1ccc(N(C)S(=O)(=O)c2cccc(C(=O)Nc3ccc(Cl)cn3)c2)cc1
(B) COc1ccc(N(C)S(=O)(=O)c2cccc(C(=O)Nc3ccc(C#N)cc3)c2)cc1
(C) CN(c1ccc(Cl)cc1)S(=O)(=O)c1cccc(C(=O)Nc2ccc(C#N)cn2)c1
(D) CN(c1ccc(Cl)cc1)S(=O)(=O)c1cccc(C(=O)Nc2ccc(S(C)(=O)=O)cc2)c1
Reorder the items by remaining at 1 µM, least to greatest. Form entry: ranked labels (order as requested).
A, C, B, D

====

- method notes: Metabolic stability in mouse plasma assessed as compound remaining at 5 uM
- Assay type: ADME, cell-free
- test context: read-out: Stability
observable: remaining at 5 µM (%)
Answer format: numeric, % implied, no suffix.

Report remaining at 5 µM for CC(C)[N+](C)(CCOC(=O)C1c2ccccc2Oc2ccccc21)C(C)C [PROPANTHELINE] please.
3.4
